This collection of values is drawn from ChEMBL document CHEMBL1142995.

Molecular target: Glycine receptor subunit alpha-1 (Homo sapiens)
Sequence (P23415 whole entry): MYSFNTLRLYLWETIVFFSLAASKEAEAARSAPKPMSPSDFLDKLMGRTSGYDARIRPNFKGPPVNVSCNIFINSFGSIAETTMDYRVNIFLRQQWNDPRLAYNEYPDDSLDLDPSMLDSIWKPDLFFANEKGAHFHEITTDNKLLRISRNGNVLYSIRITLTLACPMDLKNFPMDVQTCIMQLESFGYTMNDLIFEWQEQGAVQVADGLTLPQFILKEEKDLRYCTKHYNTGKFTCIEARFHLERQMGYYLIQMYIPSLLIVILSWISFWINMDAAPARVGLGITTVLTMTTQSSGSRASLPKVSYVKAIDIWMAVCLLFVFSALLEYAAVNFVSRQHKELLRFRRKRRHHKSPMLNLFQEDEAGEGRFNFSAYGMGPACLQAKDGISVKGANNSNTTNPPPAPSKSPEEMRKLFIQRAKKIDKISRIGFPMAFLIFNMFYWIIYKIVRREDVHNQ
Assay: Activity at human alpha1GlyR expressed in HEK293 cells assessed as inhibition of 3000 uM glycine-induced current by whole-cell patch clamp experiment
Format: cell-based
value.kind: pIC50
Scale note: pIC50 = -log10(concentration in M).

Query: // lookup pIC50 for C[C@@H]1C(=O)O[C@H]2[C@H](O)[C@]34[C@@H]5OC(=O)[C@]3(O[C@@H]3OC(=O)[C@H](O)[C@@]34[C@H](C(C)(C)C)[C@H]5O)[C@@]12O [GINKGOLIDE C]
Result: 5.23
